The reported numbers originate from patent US7375098B2.

Target: ERβ (Homo sapiens)
Construct: pSG5-ERα/β FL (Heg0/ERβ0); expressed in transfected cells; host or cells: U-20S (U-2 OS) cells, transient transfection with FuGENE 6
Sequence (Q92731 whole entry, species assumed): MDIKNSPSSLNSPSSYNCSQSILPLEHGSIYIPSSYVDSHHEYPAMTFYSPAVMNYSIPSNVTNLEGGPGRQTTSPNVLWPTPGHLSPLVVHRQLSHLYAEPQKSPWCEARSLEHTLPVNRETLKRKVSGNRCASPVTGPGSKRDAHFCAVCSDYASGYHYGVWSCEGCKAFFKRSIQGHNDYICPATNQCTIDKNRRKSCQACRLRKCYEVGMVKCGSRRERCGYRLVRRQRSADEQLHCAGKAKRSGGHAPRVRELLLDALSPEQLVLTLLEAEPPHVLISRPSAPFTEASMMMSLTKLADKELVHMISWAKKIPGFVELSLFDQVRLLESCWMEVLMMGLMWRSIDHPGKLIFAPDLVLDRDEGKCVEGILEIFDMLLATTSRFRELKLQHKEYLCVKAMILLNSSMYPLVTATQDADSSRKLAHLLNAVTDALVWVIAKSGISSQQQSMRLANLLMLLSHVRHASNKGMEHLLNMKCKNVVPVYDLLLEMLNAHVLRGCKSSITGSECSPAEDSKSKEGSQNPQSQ
Experiment: Transactivation test for estrogenic agonists and antagonists, ERβ, U-20S cells, luciferase reporter
Type: cell-based
Settings: U-20S cells, luciferase activity; read-out: Efficacy[%] ERβ
Quick list: Emax per entry.
Report field: quantity (unit follows the number).

Some solved entries appear below for comparison.
C=C[C@@]12CCc3cc(O)ccc3[C@H]1[C@@H](CCCCCCN(C)C)C[C@@]1(C)[C@H]2CC[C@@H]1O [Compound 25b]
99%
C=C[C@@]12CCc3cc(O)ccc3C1[C@@H](CCCCCC)C[C@@]1(C)C2CC[C@@H]1O (stereo partly drawn) [reference compound]
93%

q: Returns the measured Emax for the input molecule. Input: C=C[C@@]12CCc3cc(O)ccc3[C@H]1[C@@H](CCCCCCN1CCCC1)C[C@@]1(C)[C@H]2CC[C@@H]1O [Compound 26b]
a: 93%
